# Measurement notes: Moisture sorption/desorption studies (hygrostat, storage at different temperatures and relative humidity)
# Type: physicochemical
# Assay conditions: Room Temperature, 75% RH, 20 d
# Protocol: The determination of the sorption isotherms was carried out in a hygrostat. At suitable intervals, the sample was weighed by means of a sample balance. The atmosphere in the hygrostat and therefore around the sample of compound 1a (1b) and 2a (2b) was conditioned and kept by a saturated solutions of a suitable salt: Na Cl saturated solution 75.3% RH/25° C. 74.8% RH/37° C. KNO3 saturated solution 93.7% RH/25° C. 90.0% RH/37° C. […]
Quantity measured: water content (Table III) (%)
One number for each entry, in %.

water content (Table III) for CN1C2CCC1CC(NC(=O)n1c(=O)[nH]c3ccccc31)C2 (stereo not shown) [Compound 1a, reference compound] is 4.59
